Sourced from patent EP1060162B1

Tested on: Pen.notatum CBS 19746
Assay: Fungistatic effect, serial dilution test (microtitre system)
Format: cell-based
Conditions: Penicillium chrysogenum, CBS19746; Pen.; Sabouraud-Bouillon, 2 bis 4 Tage bei 26°C; read-out: MHK
Below, each entry is listed with its recorded MIC.
property name: MIC (µg/mL)

smi=CN(C)Cc1ccc(CC2CCN(C(=O)OCc3ccccc3)CC2)cc1.Cl scale_unit=µg/mL recorded_measurement=128
smi=CN(C)Cc1ccc(C(=O)C2CCN(C(=S)SCc3ccccc3)CC2)cc1.Cl scale_unit=µg/mL recorded_measurement=8
smi=CN(C)Cc1ccc(C=C2CCN(C(=S)SCc3ccccc3)CC2)cc1.Cl scale_unit=µg/mL recorded_measurement=4
smi=CN(C)Cc1ccc(CC2CCN(C(=S)SCc3ccccc3)CC2)cc1.Cl scale_unit=µg/mL recorded_measurement=1
smi=CN(C)Cc1ccc(SC2CCN(C(=S)SCc3ccccc3)CC2)cc1.Cl scale_unit=µg/mL recorded_measurement=4
smi=Cc1ccc(OC(=S)N2CCC(Cc3ccc(CN(C)C)cc3)CC2)cc1.Cl scale_unit=µg/mL recorded_measurement=32

====

Target: ^14C-Acetat-Einbau in die mit Digitonin fällbaren Steroide (Homo sapiens)
Sequence (P48449 2-732): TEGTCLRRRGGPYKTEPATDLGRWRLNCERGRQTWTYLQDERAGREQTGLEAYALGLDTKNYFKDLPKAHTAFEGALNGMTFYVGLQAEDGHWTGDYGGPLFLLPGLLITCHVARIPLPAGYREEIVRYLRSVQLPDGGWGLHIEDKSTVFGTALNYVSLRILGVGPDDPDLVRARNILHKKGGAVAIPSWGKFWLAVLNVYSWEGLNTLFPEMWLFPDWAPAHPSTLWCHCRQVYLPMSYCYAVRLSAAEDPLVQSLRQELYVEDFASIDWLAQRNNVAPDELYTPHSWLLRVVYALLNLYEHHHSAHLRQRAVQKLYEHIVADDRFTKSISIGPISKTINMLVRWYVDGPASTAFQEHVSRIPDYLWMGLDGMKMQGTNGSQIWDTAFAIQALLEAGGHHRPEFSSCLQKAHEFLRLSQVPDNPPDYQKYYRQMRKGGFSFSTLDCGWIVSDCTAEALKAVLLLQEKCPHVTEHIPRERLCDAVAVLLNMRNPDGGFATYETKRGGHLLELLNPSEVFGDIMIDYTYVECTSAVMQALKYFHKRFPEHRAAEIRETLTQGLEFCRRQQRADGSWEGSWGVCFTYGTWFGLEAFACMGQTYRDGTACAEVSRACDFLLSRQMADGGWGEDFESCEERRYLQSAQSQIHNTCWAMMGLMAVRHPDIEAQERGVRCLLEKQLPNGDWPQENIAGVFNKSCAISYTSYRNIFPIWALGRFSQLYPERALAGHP
Assay: Inhibition of 14C-acetate incorporation into digitonin-precipitable steroids
Type: cell-based
Settings: Testkonzentration 10^-9 Mol/l; read-out: Prozentwerte, um die die Verbindungen den ^14C-Acetat-Einbau hemmen
Threshold rule: inhibition at 0.001 µM greater than or equal to 50% is YES; below that, NO.

compound=CN(C)Cc1ccc(C(=O)C2CCN(C(=S)SCc3ccccc3)CC2)cc1.Cl label_value=NO
compound=CN(C)Cc1ccc(CC2CCN(C(=O)OCc3ccccc3)CC2)cc1.Cl label_value=NO
compound=CN(C)Cc1ccc(CC2CCN(C(=S)Oc3ccc(Cl)cc3)CC2)cc1 label_value=YES
compound=CN(C)Cc1ccc(SC2CCN(C(=O)OCc3ccccc3)CC2)cc1.Cl label_value=YES
compound=CN(C)Cc1ccc(CC2CCN(C(=S)SCc3ccccc3)CC2)cc1.Cl label_value=NO
compound="CN(C)Cc1ccc([C@H]2CC[C@H](N(C)C(=O)c3ccc(Cl)cc3)CC2)cc1 [V, reference compound]" label_value=NO
compound=Cc1ccc(OC(=S)N2CCC(Cc3ccc(CN(C)C)cc3)CC2)cc1.Cl label_value=YES
compound=CN(C)Cc1ccc(C=C2CCN(C(=S)SCc3ccccc3)CC2)cc1.Cl label_value=NO
compound="Cc1ccc(CC(=O)O[C@H]2CC[C@H](c3ccc(CN(C)C)cc3)CC2)cc1 [W, reference compound]" label_value=NO
compound=CN(C)Cc1ccc(SC2CCN(C(=S)SCc3ccccc3)CC2)cc1.Cl label_value=YES

====

Test system: Sacch. carlsbergensis ATCC 9080
Experiment: Fungistatic effect, serial dilution test (microtitre system)
Type: cell-based
Settings: Saccharomyces pastorianus, ATCC9080, read-out: MHK
property name: MIC (µg/mL)

smi=CN(C)Cc1ccc(SC2CCN(C(=O)Oc3ccc(Cl)cc3)CC2)cc1 target_or_system="Sacch. carlsbergensis ATCC 9080" recorded_measurement=128
smi=Cc1ccc(OC(=O)N2CCC(Cc3ccc(CN(C)C)cc3)CC2)cc1.Cl target_or_system="Sacch. carlsbergensis ATCC 9080" recorded_measurement=512
smi=CN(C)Cc1ccc(CC2CCN(C(=O)Oc3ccc(F)cc3)CC2)cc1 target_or_system="Sacch. carlsbergensis ATCC 9080" recorded_measurement=512
smi=CN(C)Cc1ccc(CC2CCN(C(=O)Oc3ccc(Cl)cc3)CC2)cc1 target_or_system="Sacch. carlsbergensis ATCC 9080" recorded_measurement=128
